// provenance: paper PMC10065799

Assign Screen to each entry below.
System: EPHB2 kinase domain
Experiment notes: pTyr-Var library bacterial peptide display kinase screen (enrichment scores);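 also: log2 fold change in enrichment of variant over reference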
Format: biochemical, human
Particulars: sheet EPHB2; effect of variant peptide relative to its reference peptide in the pTyr-Var library screen (enrichment scores)
Lab note: jot the number down without any unit.

# NPIGLYSAEIL [LDB3_Y202_T206I] with EPHB2 kinase domain: Screen is 0.5797

Record RGDCMYASLLG [AR_Y269_P271S] / EPHB2 kinase domain, Screen recorded as -2.657

Screen on EPHB2 kinase domain for PEPHIYAVADV [MYO9A_Y216_L211P] is 0.8276

Note to self: Screen of FFLGAYDRFLP [SLC22A5_Y486_V481F_YF] with EPHB2 kinase domain was -0.4331

GET /values?item= WKEREYEVVRD [CPS1_Y634_I632R] &system= EPHB2 kinase domain returns Screen: 0.9502

# SCPANYFAFKI [FAM3D_Y65_P60S] with EPHB2 kinase domain: Screen is -0.7683

Value (Screen, EPHB2 kinase domain) for record FAELMYTGFWH [ASS1_Y322_V321M] = 0.8429

Hey, EPHB2 kinase domain data for LPEENYQVLCF [ARHGAP1_Y365_R369C] : Screen came out at 1.989

Short answer on EPHB2 kinase domain for AHARMYGVLPW [PLP1_Y207_D203H] , Screen: -2.408

For the sequence DSNLIYSQIWS [FCRL3_Y662_P660L] , the measured Screen on EPHB2 kinase domain was -0.3687

Param item: LIGRGYDDPEV [HSPA9_Y128_R127G] ; param system: EPHB2 kinase domain; output Screen: -1.099

Given the sequence NIEPIYLNMLL [ATR_Y317_V316I] and test system EPHB2 kinase domain, the measured Screen is 1.556

Result for ITNLLYHVVSW [GBA_Y412_G416S] , tested on EPHB2 kinase domain, Screen: 0.7379

# Screen measured on EPHB2 kinase domain for item LENSTYQFICV [CRB1_Y760_R764C_YF] = 0.2665

Item RQNNSYTCFTA [SLC20A2_Y386_R382Q_YF] was tested on EPHB2 kinase domain; the reported Screen is -1.481

Screen value, target or system EPHB2 kinase domain, for HNQDDYSFPSR [LDLR_Y845_G844D_YF] : 1.141

The recorded Screen with EPHB2 kinase domain for LADKPYTFEFF [FXN_Y118_D122Y_YF] was -0.8967

Value sought: Screen, system EPHB2 kinase domain, item LTERDYSFVTT [ACTG2_Y199_G198D] . Result: 1.327

Screen of FADGVYLALEE [DUOX2_Y70_Q71L_YF] , assay on EPHB2 kinase domain, is -0.6876

Considering EAVSIYQFFGQ [CBLC_Y402_H405Y_YF] , its Screen with EPHB2 kinase domain was recorded as 1.796

Hey, EPHB2 kinase domain data for EGTATYAAAIL [JUP_Y644_V648I] : Screen came out at 0.4332

Observed Screen on EPHB2 kinase domain, entry RAILLYEFVGK [NATD1_Y45_V42I_YF] , equals 1.274

Per the reported EPHB2 kinase domain data, FFPANYVAPMT [GRAP2_Y324_L319F] has Screen of 0.7095

EPHB2 kinase domain assay, sequence NEKNIYGVPLM [BMPR2_Y247_R248G] , recorded Screen = 2.247

Known value: EPHB2 kinase domain Screen of the sequence VIVRMYDFHVL [RPF2_Y109_G106V_YF] equals 1.263

Let me check: LASLIYNFILF [AQP6_Y231_V234I] , system EPHB2 kinase domain, measured Screen is -1.512

Form field Screen for item LGKLTYPVGFW [NTHL1_Y177_I176T] on EPHB2 kinase domain: 0.6291

Let me check: LIFVSYDDWDF [GRIN2A_Y281_S278F_YF] , system EPHB2 kinase domain, measured Screen is 1.496

Item: SPPILYSFFLN [FCRL6_Y239_D244N_YF] | System: EPHB2 kinase domain | Screen: 0.2765

Tested system EPHB2 kinase domain; Screen recorded for LRSRVYEVPVE [SLC26A3_Y756_N753S] was -0.8191

Entry NTILLYHIMAW [GPR143_Y157_S152N] , tested on EPHB2 kinase domain, has a reported Screen of 0.3631

Item RKVLVYDKLNV [ROR2_Y624_N620K] ; assay system EPHB2 kinase domain; Screen reported as -1.435
